# STUDY_SYSTEM: JAK2 (Homo sapiens)
# Construct: made in house; host or cells: SF9 insect cells (baculovirus)
# Sequence (O60674 812-1132): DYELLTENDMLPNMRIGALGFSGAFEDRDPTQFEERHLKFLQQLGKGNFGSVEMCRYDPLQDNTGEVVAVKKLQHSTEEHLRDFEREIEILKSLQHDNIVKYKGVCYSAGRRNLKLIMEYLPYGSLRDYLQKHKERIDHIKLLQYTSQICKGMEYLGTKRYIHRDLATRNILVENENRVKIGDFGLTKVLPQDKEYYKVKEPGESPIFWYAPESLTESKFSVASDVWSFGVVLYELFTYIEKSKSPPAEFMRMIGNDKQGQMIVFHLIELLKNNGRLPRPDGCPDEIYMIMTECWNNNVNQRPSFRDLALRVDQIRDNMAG
# ASSAY_COMMENT: JAK2 inhibition (Table 4)
# Assay type: biochemical
# TEST_CONDITIONS: read-out: JAK2 Ki
READOUT: Ki (nM)

Examples with their reported Ki follow.
COMPOUND	Ki [nM]
COCCN1CCC(n2cnc3cnc4[nH]ccc4c32)CC1	12
O=C(NC1CCC(n2cnc3cnc4[nH]ccc4c32)CC1)N1CCC1 (stereo not drawn)	21.3
c1cc2c(ncc3ncn([C@@H]4C[C@H]5CC[C@@H](C4)N5)c32)[nH]1	102
N#CCCN1CCC(n2c(C(F)F)nc3cnc4[nH]ccc4c32)CC1	2.63
FC(F)(F)c1cccc(CN2CCC(n3cnc4cnc5[nH]ccc5c43)CC2)n1	7.44

a. COCC(=O)N1CCC(n2cnc3cnc4[nH]ccc4c32)CC1
b. CC(C)(C)NCCOCc1nc2cnc3[nH]ccc3c2n1C1CCN(CCC#N)CC1
[Q] a or b : whose Ki is greater? Returns: label corresponding to the selected item.
[A] a
(a: 51.3 nM, b: 14 nM)

1. CS(=O)(=O)NCc1nc2cnc3[nH]ccc3c2n1C1CCCC1
2. CC1CN(CCC#N)CCC1n1cnc2cnc3[nH]ccc3c21 (racemic) [Example 323]
[Q] Lowest Ki? choose 1 or 2 Returns: label corresponding to the selected item.
[A] 2
(2: 1.77 nM, 1: 162 nM)

----------
# STUDY_SYSTEM: JAK2 (Homo sapiens)
# Construct: made in house; host or cells: SF9 insect cells (baculovirus)
# ASSAY_COMMENT: JAK2 inhibition (Table 4)
# Assay type: biochemical
# TEST_CONDITIONS: read-out: JAK2 Ki
pKi: −log10 of the molar value.
READOUT: pKi

These recorded examples may help you get a feel for the data.
COMPOUND	STUDY_SYSTEM	pKi
c1cc2c(ncc3nc(C4CCCN4)n(C4CCCOC4)c32)[nH]1 (single isomer, unassigned) [Example 668]	JAK2 (Homo sapiens)	5.53
C[C@@H](O)c1nc2cnc3[nH]ccc3c2n1[C@@H]1CCCOC1	JAK2 (Homo sapiens)	6.45
CC(C)Cc1nc2cnc3[nH]ccc3c2n1C1CCN(Cc2ccccc2)CC1	JAK2 (Homo sapiens)	7.23
C[C@@H](O)c1nc2cnc3[nH]ccc3c2n1[C@H]1CC[C@@H](NCC(F)(F)F)C1	JAK2 (Homo sapiens)	7.20

I. Cc1nc2cnc3[nH]ccc3c2n1C1CCC(NS(C)(=O)=O)C1 (racemic)
II. c1ccc(N2CCC[C@@H](n3cnc4cnc5[nH]ccc5c43)C2)cc1
III. c1cc2c(ncc3ncn(C4CCCNCC4)c32)[nH]1 (racemic)
IV. Cc1nc2cnc3[nH]ccc3c2n1[C@H]1CC[C@H](NC(C)CC#N)CC1 (some centres unmarked)
[Q] Arrange these 4 compounds in increasing order of pKi. Please respond by ranking the labels in the order requested.
[A] III, II, IV, I

a. C[C@@H](O)c1nc2cnc3[nH]ccc3c2n1[C@@H]1CCCN(C(=O)C2CCCC2)C1
b. CS(=O)(=O)NC1CCC(n2cnc3cnc4[nH]ccc4c32)C1 (racemic)
c. CC(C)(C)OC(=O)NC1CCCC(n2cnc3cnc4[nH]ccc4c32)C1 (single isomer, unassigned) [Example 476]
d. CNC(=O)N(C)[C@H]1CC[C@H](n2c(C)nc3cnc4[nH]ccc4c32)CC1
[Q] Arrange these 4 compounds in increasing order of pKi. Answer by naming the labels in the order asked.
[A] a, c, d, b

P. CC(C)(C)OC(=O)N[C@H]1CC[C@@H](n2cnc3cnc4[nH]ccc4c32)CC1
Q. N#CCN1CCC[C@H]1C(=O)N1CCC(n2cnc3cnc4[nH]ccc4c32)CC1
R. Cc1nc2cnc3[nH]ccc3c2n1C1CCN(CC(C)O)CC1 (centres unmarked)
S. Cn1nccc1C(=O)N1CCC(n2cnc3cnc4[nH]ccc4c32)CC1
[Q] // sort entries: pKi, high to low // format: requested-order list of labels
[A] P, S, R, Q

----------
# STUDY_SYSTEM: JAK1 (Homo sapiens, UniProt P23458)
# Construct: made in house; host or cells: SF9 insect cells (baculovirus)
# Sequence (P23458 852-1154): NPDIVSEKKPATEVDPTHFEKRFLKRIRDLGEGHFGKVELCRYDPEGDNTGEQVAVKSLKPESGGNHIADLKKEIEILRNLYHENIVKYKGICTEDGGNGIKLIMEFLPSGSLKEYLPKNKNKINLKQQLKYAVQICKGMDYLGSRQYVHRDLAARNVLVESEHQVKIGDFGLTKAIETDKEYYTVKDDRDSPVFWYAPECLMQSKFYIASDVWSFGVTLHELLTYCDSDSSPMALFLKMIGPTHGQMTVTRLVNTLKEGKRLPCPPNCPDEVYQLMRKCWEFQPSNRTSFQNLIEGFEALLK
# ASSAY_COMMENT: JAK1 inhibition (Table 4)
# Type: biochemical
# TEST_CONDITIONS: read-out: JAK1 Ki
pKi: −log10 of the molar value.
READOUT: pKi

COMPOUND	STUDY_SYSTEM	VAL
Fc1cncc(CN2CCC(n3cnc4cnc5[nH]ccc5c43)CC2)c1 [Example 303]	JAK1 (Homo sapiens, UniProt P23458)	8.68
O=C(NC1CCC(n2cnc3cnc4[nH]ccc4c32)CC1)c1cccnc1 (centres unmarked) [Example 884]	JAK1 (Homo sapiens, UniProt P23458)	8.29

1. OC1CCCC(n2nnc3cnc4[nH]ccc4c32)C1 (single isomer, unassigned) [Example 552]
2. N#Cc1nc2cnc3[nH]ccc3c2n1C1CCN(Cc2ccccc2)CC1 [Example 163]
3. CS(=O)(=O)NCc1nc2cnc3[nH]ccc3c2n1C1CCNCC1(F)F (racemic) [Example 945]
[Q] Rank entries according to their pKi, from the largest number down. Note for the reader: the ranking is given by listing the labels in the order requested.
[A] 3, 1, 2
(3: 8.50, 1: 8.18, 2: 7.95)

----------
# STUDY_SYSTEM: JAK3 (Homo sapiens, UniProt P52333)
# Construct: made in house; host or cells: SF9 insect cells (baculovirus)
# Sequence (P52333 783-1124): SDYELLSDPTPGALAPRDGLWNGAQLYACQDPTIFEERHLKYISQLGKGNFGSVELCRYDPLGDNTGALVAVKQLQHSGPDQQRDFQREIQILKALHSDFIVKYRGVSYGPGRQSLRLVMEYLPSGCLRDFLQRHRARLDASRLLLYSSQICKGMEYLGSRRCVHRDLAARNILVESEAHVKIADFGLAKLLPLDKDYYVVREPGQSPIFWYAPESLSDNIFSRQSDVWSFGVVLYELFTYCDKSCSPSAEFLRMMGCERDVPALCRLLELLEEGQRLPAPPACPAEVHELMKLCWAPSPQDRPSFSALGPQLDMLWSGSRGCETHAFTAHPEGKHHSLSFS
# ASSAY_COMMENT: JAK3 inhibition (Table 4)
# Format: biochemical
# TEST_CONDITIONS: read-out: JAK3 Ki
pKi: −log10 of the molar value.
READOUT: pKi

COMPOUND	READOUT	VAL
N#CCCN1CCC(n2c(CO)nc3cnc4[nH]ccc4c32)CC1	pKi	7.98

1. OC1CCC(n2cnc3cnc4[nH]ccc4c32)C1 (centres unmarked)
2. OC1CCCC(n2nnc3cnc4[nH]ccc4c32)C1 (single isomer, unassigned) [Example 552]
3. O=C([C@H]1CC[C@H](n2nnc3cnc4[nH]ccc4c32)CC1)N1CCOCC1
4. N#Cc1cccc(CN2CCC[C@@H](n3cnc4cnc5[nH]ccc5c43)C2)c1
5. C[C@@H](O)c1nc2cnc3[nH]ccc3c2n1[C@H]1CCN(S(C)(=O)=O)C1
[Q] Which order do these items take when sorted by rising pKi? List them. To answer, write out the labels according to the requested order.
[A] 3, 5, 1, 4, 2

I. CC1(n2nnc3cnc4[nH]ccc4c32)CCN(CCC#N)CC1
II. N#CCCN1CCC(n2c(CNC(=O)c3cccc(F)c3)nc3cnc4[nH]ccc4c32)CC1
[Q] Task for the reader: decide whether I or II has the larger pKi. Indicate your choice by writing its label.
[A] II
(II: 7.69, I: 6.23)

----------
# STUDY_SYSTEM: JAK1 (Homo sapiens)
# Construct: made in house; host or cells: SF9 insect cells (baculovirus)
# ASSAY_COMMENT: JAK1 inhibition (Table 4)
# Format: biochemical
# TEST_CONDITIONS: read-out: JAK1 Ki
pKi: −log10 of the molar value. Structures can show the parent of a compound that is named as a salt.
READOUT: pKi

COMPOUND	pKi
c1cc2c(ncc3nnn(C4CCOCC4)c32)[nH]1	7.49
Cc1nc2cnc3[nH]ccc3c2n1C1CC2CCC1O2 (stereo not drawn)	8.38
N#CCCN1CCC(n2c(CNC(=O)c3ccccn3)nc3cnc4[nH]ccc4c32)CC1	8.56
C[C@@H](O)c1nc2cnc3[nH]ccc3c2n1C1CCN(Cc2cnn(C)c2)CC1	8.02
CS(=O)(=O)N1CCC(n2c(CC3CCCC3)nc3cnc4[nH]ccc4c32)CC1	6.49
O[C@@H](c1nc2cnc3[nH]ccc3c2n1C1CCCCC1)C(F)(F)F	8.74

A. FC1CNCCC1n1nnc2cnc3[nH]ccc3c21 (racemic) [Example 525]
B. N#Cc1cccc(S(=O)(=O)N2CCC(n3cnc4cnc5[nH]ccc5c43)CC2)c1
[Q] Which value of pKi is greater, the one for A or the one for B ? Return value: the label identifying the chosen record.
[A] B

a. COCCN1CCC(n2cnc3cnc4[nH]ccc4c32)CC1
b. N#Cc1nc2cnc3[nH]ccc3c2n1C1CCN(Cc2cccnc2)CC1
c. CC(CC#N)N1CCC(n2c(CN3CCCC3=O)nc3cnc4[nH]ccc4c32)CC1 (racemic)
d. COCCNC1CCC(n2nnc3cnc4[nH]ccc4c32)C1 (racemic) [Example 618, hydrochloride]
e. N#CCCN1CCC(n2c(COCC3CCC3)nc3cnc4[nH]ccc4c32)CC1
[Q] Rank order required: pKi, descending. Quick reminder: the answer is the labels in the order asked.
[A] b, a, c, e, d
(b: 8.40, a: 8.12, c: 7.48, e: 7.21, d: 6.86)

I. OCc1nc2cnc3[nH]ccc3c2n1C1CCN(CCC(F)(F)F)CC1
II. Cc1nc2cnc3[nH]ccc3c2n1C1CCC(F)(F)CC1
[Q] Min pKi? I | II Please indicate the selected item by its label.
[A] II
(II: 8.01, I: 8.46)

P. O=C(Cc1nc2cnc3[nH]ccc3c2n1C1CCCOC1)N1CC(F)(F)C1 (racemic)
Q. OCc1nc2cnc3[nH]ccc3c2n1C1CC2CCC1O2 (single isomer, unassigned) [Example 852]
R. CCn1cc(CN2CCC(n3c([C@@H](C)O)nc4cnc5[nH]ccc5c43)CC2)cn1
[Q] // ascending sort on recorded pKi Use the labels to give the requested order.
[A] P, Q, R
(P: 6.94, Q: 7.54, R: 7.74)
